# Test protocol: Drug repurposing screens with cells derived from glioblastoma tumor samples (AID 1345199); also: % is scaled to controls: 0 for no effect and ±100 for the full control effect; nearly all actives have a fitted effect of over 40% in size
# Experimental setup: GBM patient neurospheres viability, ATP luminescence, 48 h; at 45.9 µM (top of the series); tumour line B
Results filed as inconclusive are left out. Calls of active or inactive are those of the source. Calls follow the shape of the dose curve; as a rule, active = well fitted inhibition curve with a large enough effect; inconclusive = small, poorly fitted or top-dose-only effect; inactive = flat fitted curve, though single readings scatter.
This listing pairs compounds with measured activity, negative = cell killing.

Nc1nc2c(ncn2CCC(CO)CO)c(=O)[nH]1 = -8.7% (inactive)

**Q:** Name the recorded activity, negative = cell killing of the item CC(O)COc1ccccc1 (stereo unspecified) in your answer.
**A:** -16.3% (inactive)

**Q:** Name the recorded activity, negative = cell killing of the item CC12CCC(CC1)C(C)(C)O2 in your answer.
**A:** -7.94% (inactive)

**Q:** Name the recorded activity, negative = cell killing of the item Nc1ncnc2c1ncn2[C@@H]1O[C@H](CO)[C@@H](O)[C@H]1O in your answer.
**A:** 4.34% (inactive)

**Q:** Name the recorded activity, negative = cell killing of the item NC(=O)NC(=O)Cc1ccccc1 in your answer.
**A:** 5.96% (inactive)

**Q:** Name the recorded activity, negative = cell killing of the item COc1ccc2cc1Oc1cc3c(cc1OC)CC[N+](C)(C)[C@H]3Cc1ccc(cc1)Oc1c(OC)c(OC)cc3c1[C@@H](C2)[N+](C)(C)CC3 in your answer.
**A:** -14.8% (inactive)

----------
# Test protocol: Primary qHTS for inhibitors of nuclear receptor binding SET domain protein 2 (NSD2) in an RCH-ACV wild type WT cells (2C) (AID 1645877); also: nearly all actives have a fitted effect of over 70% in size
# Experimental setup: RCH-ACV (leukaemia line) NSD2 WT (2C) viability, CellTiter-Glo, 72 h; series mostly up to 44.9 µM
Results filed as inconclusive are left out. Activity calls are given as the source filed them. Calls follow the shape of the dose curve; as a rule, active = well fitted inhibition curve with a large enough effect; inconclusive = small, poorly fitted or top-dose-only effect; inactive = no such curve, though single readings can be large or run the other way.
Return exactly one item of Yes for active, No for inactive

Examples with answers:
CC(O)COc1ccccc1 (configuration not stated) = No
CCCCCCCCCCCCOS(=O)(=O)O = No
CN(C)CC[C@@H](c1ccc(Cl)cc1)c1ccccn1 = No
O=Cc1ccccc1C=O = No
CCCCN(CCCC)CC(O)c1cc(Cl)cc2c1-c1ccc(Cl)cc1/C2=C/c1ccc(Cl)cc1 (configuration not stated) = Yes

**Q:** Test call for this compound, please: Cc1ncc(COP(=O)(O)O)c(C=O)c1O
**A:** No

**Q:** Test call for this compound, please: NC(=O)c1ncn([C@@H]2O[C@H](CO)[C@@H](O)[C@H]2O)c1N
**A:** No

**Q:** Test call for this compound, please: CCN(CC)C(C)CN1c2ccccc2Sc2ccccc21 (configuration not stated)
**A:** No

**Q:** Test call for this compound, please: CCC(=O)c1ccc(O)cc1
**A:** No

**Q:** Test call for this compound, please: O=C(O)c1ccccc1O
**A:** No

**Q:** Test call for this compound, please: O=C(O)CN1C(=O)c2cccc3cccc(c23)C1=O
**A:** No

**Q:** Test call for this compound, please: Nc1ccc(S(=O)(=O)Nc2ccccc2)cc1
**A:** No

**Q:** Test call for this compound, please: CC(C)(C)NCC(O)COc1ccc(NC(=O)NC2CCCCC2)cc1 (configuration not stated)
**A:** No

**Q:** Test call for this compound, please: CC12CCC(CC1)C(C)(C)O2
**A:** No

**Q:** Test call for this compound, please: CCCCc1ncc(/C=C(\Cc2cccs2)C(=O)O)n1Cc1ccc(C(=O)O)cc1
**A:** No

**Q:** Test call for this compound, please: O=C(O)COc1nn(Cc2ccccc2)c2ccccc12
**A:** No

**Q:** Test call for this compound, please: O=C1NC(=O)[C@@]2(CCOc3ccc(F)cc32)N1
**A:** No

**Q:** Test call for this compound, please: COc1ccccc1O
**A:** Yes

----------
# System: CP297
# Test protocol: qHTS profiling for inhibitors of Plasmodium falciparum proliferation (AID 504749);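 also: 0% = DMSO vehicle and full inhibition = artemisinin control; nearly all actives have a fitted effect of over 60% in size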
# Experimental setup: P. falciparum in erythrocytes, SYBR Green DNA, 72 h; series mostly up to 28.7 µM
Inconclusive results are not listed. The source made the active and inactive calls. Calls follow the shape of the dose curve; as a rule, active = well fitted inhibition curve with a large enough effect; inconclusive = small, poorly fitted or top-dose-only effect; inactive = flat fitted curve, though single readings scatter.
Return exactly one item of active, inactive

CCCCCCCCCCCCOS(=O)(=O)O = inactive

**Q:** Test call for this molecule, please: CN1CCCCC1CCN1c2ccccc2Sc2ccc(S(C)=O)cc21 (stereo not given)
**A:** inactive

**Q:** Test call for this molecule, please: CCCCN1CCCC[C@H]1C(=O)Nc1c(C)cccc1C
**A:** inactive

**Q:** Test call for this molecule, please: NS(=O)(=O)c1cc2c(cc1Cl)NC(CSCc1ccccc1)=NS2(=O)=O
**A:** inactive

**Q:** Test call for this molecule, please: O=C(O)c1ccccn1
**A:** inactive

**Q:** Test call for this molecule, please: CCOC(=O)[C@H](CCc1ccccc1)N[C@@H](C)C(=O)N1C(=O)N(C)C[C@H]1C(=O)O
**A:** inactive

**Q:** Test call for this molecule, please: NC(CSCC(=O)O)C(=O)O (stereo not given)
**A:** inactive

**Q:** Test call for this molecule, please: CC(O)CN(CCN(CC(C)O)CC(C)O)CC(C)O (stereo not given)
**A:** inactive

----------
# Experimental target: Cytochrome P450 2D6 (Homo sapiens) (UniProt P10635)
# Sequence (P10635 whole entry, looked up): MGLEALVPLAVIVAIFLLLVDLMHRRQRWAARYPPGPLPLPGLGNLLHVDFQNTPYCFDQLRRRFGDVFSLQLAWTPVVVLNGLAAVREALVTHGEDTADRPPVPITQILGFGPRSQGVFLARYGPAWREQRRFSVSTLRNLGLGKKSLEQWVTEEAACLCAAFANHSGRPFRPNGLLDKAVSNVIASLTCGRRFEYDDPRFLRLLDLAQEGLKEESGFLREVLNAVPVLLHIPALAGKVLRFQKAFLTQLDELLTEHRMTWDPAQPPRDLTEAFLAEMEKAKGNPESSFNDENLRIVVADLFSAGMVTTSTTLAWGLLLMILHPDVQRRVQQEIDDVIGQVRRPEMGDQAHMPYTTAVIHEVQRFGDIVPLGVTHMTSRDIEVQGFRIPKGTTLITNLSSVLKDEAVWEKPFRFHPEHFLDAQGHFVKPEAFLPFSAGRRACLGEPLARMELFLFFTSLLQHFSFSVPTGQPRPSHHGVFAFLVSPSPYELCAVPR
# Test protocol: qHTS for inhibitors of CYP2D6 against the NCATS DSHEA and TCM libraries (AID 1919972); also: % is scaled to controls: 0 for no effect and ±100 for the full control effect
# Experimental setup: CYP2D6 enzymatic inhibition, luminescence qHTS; series mostly up to 34.1 µM
Results filed as inconclusive are left out. The source made the active and inactive calls. The call rests on the fitted dose curve; in most records, active means well fitted inhibition curve with a large enough effect; inconclusive means small, poorly fitted or top-dose-only effect; inactive means no such curve, though single readings can be large or run the other way.
Measured attribute: outcome

CC12CCC(CC1)C(C)(C)O2 = inactive
O=C(O)c1ccccc1O = inactive
NC(N)=NCCC[C@H](N)C(=O)O = inactive
CC1=C(C/C=C(\C)CCC[C@H](C)CCC[C@H](C)CCCC(C)C)C(=O)c2ccccc2C1=O = inactive

----------
# Experimental target: Cytochrome P450 2D6 (Homo sapiens) (UniProt P10635)
# Test protocol: qHTS Assay for Inhibitors and Substrates of Cytochrome P450 2D6 (AID 891); also: nearly all actives have a fitted effect of over 60% in size
# Experimental setup: recombinant CYP2D6, luciferin-ME EGE luminescence; series mostly up to 57.1 µM
Inconclusive results are not listed. Calls of active or inactive are those of the source. Calls follow the shape of the dose curve; as a rule, active = well fitted inhibition curve with a large enough effect; inconclusive = small, poorly fitted or top-dose-only effect; inactive = no such curve, though single readings can be large or run the other way.
Return exactly one item of yes (1) for active, no (0) for inactive

CNCCCC1c2ccccc2C=Cc2ccccc21 = yes (1)
c1ccc2c(CC3=NCCN3)cccc2c1 = yes (1)
CCCCN1CCCC[C@H]1C(=O)Nc1c(C)cccc1C = yes (1)

From here, focus on the item given below.
**Q:** Test call for this compound, please: Nc1cc(=O)[nH]c(N)n1
**A:** no (0)

----------
# Tested on: astro (control astrocytes)
# Test protocol: Drug repurposing screens with cells derived from glioblastoma tumor samples (AID 1345199); also: % is scaled to controls: 0 for no effect and ±100 for the full control effect; nearly all actives have a fitted effect of over 40% in size
# Experimental setup: viability, ATP luminescence, 48 h; series mostly up to 45.9 µM
Results filed as inconclusive are left out. Calls of active or inactive are those of the source. Calls come from the whole dose curve; as a rule, active = well fitted inhibition curve with a large enough effect; inconclusive = small, poorly fitted or top-dose-only effect; inactive = flat fitted curve, though single readings scatter.
Return exactly one item of active, inactive

C/C(=C(\CCOP(=O)(O)O)SC(=O)c1ccccc1)N(C=O)Cc1cnc(C)nc1N = inactive

**Q:** Test call for this compound, please: NC(CSCC(=O)O)C(=O)O (configuration not stated)
**A:** inactive

**Q:** Test call for this compound, please: CCCOC(=O)c1ccccc1
**A:** inactive

**Q:** Test call for this compound, please: CCn1cc(C(=O)O)c(=O)c2cnc(N3CCNCC3)nc21
**A:** inactive

----------
# Experimental target: Luciferin 4-monooxygenase (Photinus pyralis) (UniProt P08659)
# Test protocol: Primary firefly luciferase (FLuc) qHTS assay for identification of artifact compounds. (AID 1845220); also: nearly all actives have a fitted effect of over 60% in size
# Experimental setup: purified firefly luciferase, luminescence, 5 min; at 54.1 µM (top of the series) unless noted; series mostly up to 54.1 µM
Activity calls are given as the source filed them. The call rests on the fitted dose curve; in most records, active means well fitted inhibition curve with a large enough effect; inconclusive means small, poorly fitted or top-dose-only effect; inactive means flat fitted curve, though single readings scatter.
Measured attribute: outcome

CCOC(CN1CCN(CC(C)C(=O)c2ccccc2)CC1)c1ccccc1 (stereo unspecified) = inactive
CC(C)(C(=O)O)c1ccc(C(O)CCCN2CCC(C(O)(c3ccccc3)c3ccccc3)CC2)cc1 (stereo unspecified) = inactive
COc1ccc(Cl)cc1C(=O)NCCc1ccc(S(=O)(=O)NC(=O)NC2CCCCC2)cc1 = inactive
CCOc1ccc2ccccc2c1C(=O)N[C@@H]1C(=O)N2[C@@H]1SC(C)(C)[C@@H]2C(=O)O = inactive
C[C@]12CC[C@@H]3c4ccc(O)cc4CC[C@H]3[C@@H]1CC[C@@H]2OC(=O)CCC1CCCC1 = inactive

**Q:** Name the recorded outcome of the item CCCCc1ncc(/C=C(\Cc2cccs2)C(=O)O)n1Cc1ccc(C(=O)O)cc1 in your answer.
**A:** inactive

**Q:** Name the recorded outcome of the item Nc1nc2c(ncn2CCC(CO)CO)c(=O)[nH]1 in your answer.
**A:** inactive

**Q:** Name the recorded outcome of the item CC(C)(C)C(=O)C(Oc1ccc(Cl)cc1)n1ccnc1 (stereo unspecified) in your answer.
**A:** inactive

**Q:** Name the recorded outcome of the item CC/C=C(\C(=O)N[C@@H]1C(=O)N2C(C(=O)OCOC(=O)C(C)(C)C)=C(COC(N)=O)CS[C@H]12)c1csc(N)n1 in your answer.
**A:** inactive

**Q:** Name the recorded outcome of the item CCCCN1CCCC[C@H]1C(=O)Nc1c(C)cccc1C in your answer.
**A:** inactive

Entry source: PubChem BioAssay (NCATS)
